Assay: self-splicing fitness, log relative to wild type (ln ratio); higher = more splicing; Tetrahymena group I intron in knt gene, E. coli kanamycin selection, DiMSum; sequences stand for … in CUCUCU…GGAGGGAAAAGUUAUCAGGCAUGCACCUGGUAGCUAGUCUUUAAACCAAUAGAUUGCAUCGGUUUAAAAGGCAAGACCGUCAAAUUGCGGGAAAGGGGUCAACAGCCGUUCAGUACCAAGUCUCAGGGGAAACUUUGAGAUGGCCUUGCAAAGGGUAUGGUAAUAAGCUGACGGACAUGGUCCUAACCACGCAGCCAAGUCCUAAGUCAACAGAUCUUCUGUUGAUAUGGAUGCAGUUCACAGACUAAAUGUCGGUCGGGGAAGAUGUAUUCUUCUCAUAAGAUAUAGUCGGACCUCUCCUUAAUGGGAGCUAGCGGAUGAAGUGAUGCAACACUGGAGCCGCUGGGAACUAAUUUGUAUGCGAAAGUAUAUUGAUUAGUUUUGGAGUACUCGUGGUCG;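 also: selection with 25 µg/mL kanamycin versus none on LB agar overnight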
Conditions: 37 °C
self-splicing fitness (ln) by entry:
measured_endpoint: self-splicing fitness (ln)

ordered_residues	readout_value
UGAGAGCAAUAUUACGCAAU	-3
AGUCAGCAAUAUUACGCUUU	0.0148
UUGAAGCAAUAUUACGACAU	0.28
ACUAAGCAAUAUUACGACGA	0.181
CAAAAGCAAUAUUACGCGAA	-1.3
CGCGAGCAAUAUUACGCGUA	-2.52
GCCUAGCAAUAUUACGGAGU	-0.198
UGAUAGCAAUAUUACGAUUG	-0.301

====

self-splicing fitness (ln) by entry:
Assay: self-splicing fitness, log relative to wild type (ln ratio); higher = more splicing; Tetrahymena group I intron in knt gene, E. coli kanamycin selection, DiMSum; sequences stand for … in CUCUCU…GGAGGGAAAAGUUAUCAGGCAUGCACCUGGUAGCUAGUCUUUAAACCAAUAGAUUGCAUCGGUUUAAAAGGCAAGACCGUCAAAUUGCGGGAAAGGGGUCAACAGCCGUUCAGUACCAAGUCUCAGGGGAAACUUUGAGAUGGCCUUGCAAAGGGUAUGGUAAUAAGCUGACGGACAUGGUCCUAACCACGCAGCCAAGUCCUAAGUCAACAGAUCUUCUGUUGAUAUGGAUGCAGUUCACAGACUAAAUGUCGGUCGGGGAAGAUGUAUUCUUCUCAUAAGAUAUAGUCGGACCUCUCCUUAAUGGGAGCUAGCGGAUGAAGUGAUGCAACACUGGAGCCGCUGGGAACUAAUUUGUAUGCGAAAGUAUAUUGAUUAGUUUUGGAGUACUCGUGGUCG
Conditions: 37 °C

ordered_residues	self-splicing fitness (ln)
GAAUAGCAAUAUUACGUUCU	-1.82
UCCCAGCAAUAUUACGGACC	0.0123
UGUCAGCAAUAUUACGCUCC	-1.2
AGGGAGCAAUAUUACGUCCA	-0.389
CCGAAGCAAUAUUACGGCUC	-2.81
UUCAAGCAAUAUUACGGUCC	-2.3
ACGAAGCAAUAUUACGAAUU	-2.37
CUGGAGCAAUAUUACGGGAA	-2.36
CCCUAGCAAUAUUACGCACC	-2.9
GAGGAGCAAUAUUACGAGCU	-1.77
AACUAGCAAUAUUACGAUUA	-0.0303
CUGGAGCAAUAUUACGCCUA	-1.44
GAUAAGCAAUAUUACGGUCG	0.117
CGGCAGCAAUAUUACGACAA	-2.28
UAUUAGCAAUAUUACGACAG	-0.556
GCUAAGCAAUAUUACGGGGC	-2.87
UAGUAGCAAUAUUACGACUA	0.251
GAGAAGCAAUAUUACGAUCA	-0.469
CCGAAGCAAUAUUACGCAUA	-3.64
AACUAGCAAUAUUACGGUGU	-0.956
UUCCAGCAAUAUUACGGAAU	-2.77
UCAGAGCAAUAUUACGCCAU	-1.91
UUCGAGCAAUAUUACGCUGG	-1.02
ACCGAGCAAUAUUACGCAAG	-2.35
UGAGAGCAAUAUUACGGAUA	-2.5
CCAGAGCAAUAUUACGGUCC	-1.51
GAAAAGCAAUAUUACGCUUC	-2.77
AGGGAGCAAUAUUACGUUCC	-2.63
CACAAGCAAUAUUACGUGAG	-3.21
CUUGAGCAAUAUUACGAUGG	-2.13
CUCUAGCAAUAUUACGGGAU	-3.45
GUGAAGCAAUAUUACGGGAA	-0.793
AUGGAGCAAUAUUACGCGGA	-1.34
CAUCAGCAAUAUUACGUCCC	-1.39
ACGAAGCAAUAUUACGUGCG	-1.36
CUAUAGCAAUAUUACGGAGU	-2.86
GUCUAGCAAUAUUACGCAAU	-0.156
ACGCAGCAAUAUUACGUGCU	-2.9
AGUUAGCAAUAUUACGCGAA	-1.1
GGGCAGCAAUAUUACGCAUG	-0.482
UCGUAGCAAUAUUACGGUCG	0.265
AAGUAGCAAUAUUACGGUGG	-2.85
GUUCAGCAAUAUUACGUAUC	-0.756
AGACAGCAAUAUUACGUUCA	-0.159
AUCUAGCAAUAUUACGCCUU	0.116
GGUGAGCAAUAUUACGAGAC	-2.01
GGUGAGCAAUAUUACGACCG	0.778
AUGAAGCAAUAUUACGCAUC	-2.45
CUUUAGCAAUAUUACGCUAU	-1.68
UUCAAGCAAUAUUACGAUCU	-0.996
UACAAGCAAUAUUACGGGGC	-2.46
AAUCAGCAAUAUUACGACGG	-0.991
GUCUAGCAAUAUUACGCACC	-0.328
CAUGAGCAAUAUUACGUUGC	-3.34
CAAUAGCAAUAUUACGGCGG	-0.0335
CGCAAGCAAUAUUACGGUGG	-0.2
AUAGAGCAAUAUUACGUUAG	-1.21
UCCAAGCAAUAUUACGAUAA	-0.704
GCCUAGCAAUAUUACGCUAC	-2.81
CUAGAGCAAUAUUACGGAAG	-0.264
CCCUAGCAAUAUUACGACAU	-2.93
AAAAAGCAAUAUUACGACAU	0.11
AAAGAGCAAUAUUACGUUAU	-2.49
GAAGAGCAAUAUUACGCACA	-1.07
GCCGAGCAAUAUUACGUCCG	-2.87
AGCCAGCAAUAUUACGAGGG	-2.38
GAAAAGCAAUAUUACGGGAU	-1.26

====

self-splicing fitness (ln) by entry:
Test: self-splicing fitness, log relative to wild type (ln ratio); higher = more splicing; Tetrahymena group I intron in knt gene, E. coli kanamycin selection, DiMSum; sequences stand for … in CUCUCU…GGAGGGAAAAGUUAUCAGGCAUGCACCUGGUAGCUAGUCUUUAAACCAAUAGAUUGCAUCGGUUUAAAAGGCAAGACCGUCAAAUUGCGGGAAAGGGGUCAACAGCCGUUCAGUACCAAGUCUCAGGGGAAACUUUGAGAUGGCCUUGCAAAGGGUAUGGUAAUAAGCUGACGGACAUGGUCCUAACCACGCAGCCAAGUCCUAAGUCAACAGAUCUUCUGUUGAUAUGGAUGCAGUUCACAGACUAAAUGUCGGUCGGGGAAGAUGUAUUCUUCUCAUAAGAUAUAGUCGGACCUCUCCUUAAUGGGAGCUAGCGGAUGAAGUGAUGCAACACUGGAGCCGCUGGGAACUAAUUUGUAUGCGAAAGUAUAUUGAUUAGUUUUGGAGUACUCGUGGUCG
Details: 37 °C
measured_endpoint: self-splicing fitness (ln)

ordered_residues	readout_value
AAAGAGCAAUAUUACGAAUC	-2.7
AGCCAGCAAUAUUACGCUGU	-3.32
GCUCAGCAAUAUUACGCUUG	0.227
CUUAAGCAAUAUUACGUUUU	-2.07
CUACAGCAAUAUUACGGUCG	0.417
CUUGAGCAAUAUUACGAGGU	-2.42
CAGAAGCAAUAUUACGCGAA	-1.94
UUUCAGCAAUAUUACGGGGC	-3.35
GAUAAGCAAUAUUACGACGA	-0.626
CCCAAGCAAUAUUACGCAGG	-2.7
ACUGAGCAAUAUUACGAAGA	-1.64
UGCAAGCAAUAUUACGUCUU	-0.686
CUUUAGCAAUAUUACGAGGG	-2.26
GCCUAGCAAUAUUACGGAAC	0.0968
AUGGAGCAAUAUUACGGCCC	-1.43
UACCAGCAAUAUUACGCAAA	0.0436
CUUAAGCAAUAUUACGCCAA	-2.43
GAAUAGCAAUAUUACGACGU	0.265
GCGUAGCAAUAUUACGAUCC	-0.852
UGAAAGCAAUAUUACGAUCC	0.92
GUAAAGCAAUAUUACGAACC	-2.8
CGCGAGCAAUAUUACGUAGA	-2.93
GCAAAGCAAUAUUACGGAGC	-2.07
GCGCAGCAAUAUUACGAUUC	0.1
ACAUAGCAAUAUUACGGCAA	-0.569
CUAGAGCAAUAUUACGAUGG	0.418
CGUCAGCAAUAUUACGUCGG	0.115
GGCCAGCAAUAUUACGGAUC	-0.347
AAAUAGCAAUAUUACGGUAC	-2.6
UGUGAGCAAUAUUACGGGGA	-1.65
GUUUAGCAAUAUUACGCACU	-0.128
GGCGAGCAAUAUUACGUCGG	-2.13
AUUGAGCAAUAUUACGAGCC	-2.48
UGUUAGCAAUAUUACGCGGG	-1.57
AGCCAGCAAUAUUACGUCUA	-2.05
UUCUAGCAAUAUUACGGAGA	-2.41
UAGCAGCAAUAUUACGGACC	-1.67
GCAAAGCAAUAUUACGUUUC	-3.44
ACUUAGCAAUAUUACGAUGC	-0.644
UAGCAGCAAUAUUACGCUUA	-0.689
UCUAAGCAAUAUUACGACAU	-2.23
UACUAGCAAUAUUACGGAUU	-1.56
ACUGAGCAAUAUUACGUCGC	-2.18
UGUCAGCAAUAUUACGCAGC	-0.622
GUCUAGCAAUAUUACGUUCC	-0.649
AUCCAGCAAUAUUACGAAGC	-2.28
GUUCAGCAAUAUUACGCGGC	-2.94
CUCUAGCAAUAUUACGGACG	-0.0675
GAGAAGCAAUAUUACGUAAG	-1.1
UGCCAGCAAUAUUACGGACG	-0.0244
UUUGAGCAAUAUUACGGUCU	-2.63
CGCGAGCAAUAUUACGCUUG	-1.46
UACCAGCAAUAUUACGACAU	-0.566
CACUAGCAAUAUUACGAGGA	-1.49
GGCAAGCAAUAUUACGUCAC	-0.36
GUAAAGCAAUAUUACGCCAG	-1.21
UUGGAGCAAUAUUACGCUCC	-0.876
CUUCAGCAAUAUUACGGGAU	-1.34
UUCCAGCAAUAUUACGCGAG	-0.29
GUACAGCAAUAUUACGCCAA	-1.7
CGUAAGCAAUAUUACGACCA	-0.83
UCUAAGCAAUAUUACGGCAU	-2.55
CCAUAGCAAUAUUACGGAGU	-2.42
UUCGAGCAAUAUUACGUUCA	-1.15
AUGUAGCAAUAUUACGCGAU	-2.55
UUCUAGCAAUAUUACGGUGC	-2.96
GAUUAGCAAUAUUACGCGGU	-3.43
